system: HCT-116 colon; test: NCI tumour cell line growth inhibition, 48 h
METRIC: GI50

These solved cases illustrate the format of a correct answer.
{"MOLECULE": "C=C(C(=O)O[C@H]1C(=O)C2=C(C)CCC3C(=C)C(=O)O[C@@H]3C2[C@]1(C)O)C1CC[C@]2(C)CCCC(=C)[C@H]2C1 (some centres not stated)", "GI50": "2.09 µM"}
{"MOLECULE": "NC(=S)NN=C1CSSC1", "GI50": "2.78 µM"}
{"MOLECULE": "CCCCCn1c(C)cc(/C=C\\c2ccc3cc(C)ccc3[n+]2C)c1C", "GI50": "0.0343 µM"}
{"MOLECULE": "CC(=O)[O-].O=C([CH-]C(=O)c1ccccc1)c1ccccc1.O=C([CH-]C(=O)c1ccccc1)c1ccccc1.[Sm+3]", "GI50": "5.05 µM"}
{"MOLECULE": "Cc1cc(Nc2cc(N)ncn2)c(=O)n2c1C(=O)NC21CCCCC1", "GI50": "> 100 µM"}
{"MOLECULE": "COc1cccc2c1n([O-])c1cccc(OC)c1[n+]2=O", "GI50": "3.7 µM"}
{"MOLECULE": "CCN(c1cc(C#CCN2CCOCC2)cc(C(=O)NCc2c(C)cc(C)[nH]c2=O)c1C)C1CCC(N(C)CCOC)CC1 (configuration not stated)", "GI50": "> 100 µM"}
{"MOLECULE": "Cc1cc(I)cc(CN(C)CCCN2CCN(C)CC2)c1O", "GI50": "12.6 µM"}

Asked: // GI50 lookup, key: `COc1cc(NC(=O)C2=C(N3CCOCC3)/C(=C/c3ccc(Cl)cc3)CC2)cc(OC)c1OC`
Given back: 28.5 µM

Asked: `CCN(CC)C(=S)[S][Bi]([S]C(=S)N(CC)CC)[S]C(=S)N(CC)CC` , same question.
Given back: 0.0858 µM

Asked: `Nc1ncc(-c2cccc(S(N)(=O)=O)c2)c2scc(-c3ccc(F)c(Cl)c3)c12` , same question.
Given back: 4.34 µM

Asked: `C=C1C(=O)O[C@H]2[C@H]1CC/C(COC(=O)NCc1ccc(Cn3c(=O)sn(-c4ccccc4)c3=O)cc1)=C\CC[C@@]1(C)O[C@@H]21` , same question.
Given back: 1.52 µM

====

system: RPMI-8226 leukemia; assay: NCI tumour cell line growth inhibition, 48 h
METRIC: TGI

These solved cases illustrate the format of a correct answer.
{"COMPOUND": "CC[C@H](C)C(=O)O[C@H]1C[C@H](O)C=C2C=C[C@H](C)[C@H](CC[C@@H](O)C[C@@H](O)CC(=O)O)[C@H]21", "METRIC": "TGI", "EXPERIMENTAL_RESULT": "> 100 µM"}
{"COMPOUND": "Cc1c(C(=O)O)n2cnnc2c2ccccc12", "METRIC": "TGI", "EXPERIMENTAL_RESULT": "> 100 µM"}
{"COMPOUND": "COc1cc(-c2csc(NC(=O)Nc3cc(Cl)cc(Cl)c3)n2)cc(OC)c1OC", "METRIC": "TGI", "EXPERIMENTAL_RESULT": "9.24 µM"}
{"COMPOUND": "O=C(O)C(=O)/C=C(\\O)c1ccc(Br)cc1", "METRIC": "TGI", "EXPERIMENTAL_RESULT": "> 100 µM"}
{"COMPOUND": "CC(=O)OC1COC(Nc2nc(N)n(C)c(=O)c2N=O)C(OC(C)=O)C1OC(C)=O (stereo unspecified)", "METRIC": "TGI", "EXPERIMENTAL_RESULT": "> 10 µM"}
{"COMPOUND": "O=C(O)CCC(NC(=O)c1ccc(Nc2nc3cc(C(F)(F)F)ccc3nc2C(=O)O)cc1)C(=O)O (stereo unspecified)", "METRIC": "TGI", "EXPERIMENTAL_RESULT": "> 100 µM"}

Asked: // TGI lookup, key: `CN(C)C(=O)Oc1c(-c2ccccc2)c(=O)n2c3ccccc3n3c(=O)n(C)c(=O)c1c23`
Given back: > 100 µM

Asked: `O=C(O)/C(=C\c1ccncc1)c1cccc2ccccc12` , same question.
Given back: > 100 µM

Asked: `CCN(CC)CCNC(=O)c1cccc2nc3ccccc3nc12` , same question.
Given back: > 100 µM

Asked: NC(CSSCC(N)Cc1ccccc1)Cc1ccccc1 (stereo unspecified) , same question.
Given back: > 100 µM

Asked: `C/C(=N\NC(=S)N(C)C)c1ccccn1` , same question.
Given back: 31.9 µM

Asked: CCN(c1cc(C#CCN2CCOCC2)cc(C(=O)NCc2c(C)cc(C)[nH]c2=O)c1C)C1CCC(N(C)CCOC)CC1 (stereo unspecified) , same question.
Given back: > 100 µM

Asked: `COC(=O)c1c(O)ccc2c1c1c(n2Cc2ccccc2)C(=O)c2ccccc2C1` , same question.
Given back: 32.6 µM

Asked: `Cc1cc(S(=O)(=O)/N=C(/NN)NNc2cccc(C(F)(F)F)n2)c(S)cc1Cl` , same question.
Given back: > 100 µM

Asked: `Oc1c(CN2CCN(c3ccccc3)CC2)cc(Br)c2cccnc12` , same question.
Given back: > 40.4 µM

Asked: O=C1OCC2=C1C(c1ccccc1)c1cc3c(cc1N2CCO)OCCO3 (stereo unspecified) , same question.
Given back: > 50 µM

Asked: `CN1CCN(C2=CC(=O)c3c(O)ccc(O)c3C2=O)CC1` , same question.
Given back: 6.25 µM

Asked: `CC1(C)CC(N(C(=O)/C=C/c2ccc([N+](=O)[O-])o2)C2CCCCC2)CC(C)(C)N1` , same question.
Given back: 12.9 µM

Asked: CC(=O)Nc1ccccc1NC1CC(C)N(c2ccccc2)N1C(C)=O (stereo unspecified) , same question.
Given back: > 10 µM

Asked: `C=C1C(=O)O[C@H]2[C@H]1CC/C(COC(=O)NCc1ccc(Cn3c(=O)sn(-c4ccccc4)c3=O)cc1)=C\CC[C@@]1(C)O[C@@H]21` , same question.
Given back: 6.26 µM

Asked: `O=C(CSc1nc2ccccc2c(=O)n1-c1ccccc1)N=Nc1c(O)[nH]c2ccc(F)cc12` , same question.
Given back: 4.65 µM
